Target: T1, human calcitonin (a) receptor (human, UniProt P30988 25-474)
T1 sequence (looked up): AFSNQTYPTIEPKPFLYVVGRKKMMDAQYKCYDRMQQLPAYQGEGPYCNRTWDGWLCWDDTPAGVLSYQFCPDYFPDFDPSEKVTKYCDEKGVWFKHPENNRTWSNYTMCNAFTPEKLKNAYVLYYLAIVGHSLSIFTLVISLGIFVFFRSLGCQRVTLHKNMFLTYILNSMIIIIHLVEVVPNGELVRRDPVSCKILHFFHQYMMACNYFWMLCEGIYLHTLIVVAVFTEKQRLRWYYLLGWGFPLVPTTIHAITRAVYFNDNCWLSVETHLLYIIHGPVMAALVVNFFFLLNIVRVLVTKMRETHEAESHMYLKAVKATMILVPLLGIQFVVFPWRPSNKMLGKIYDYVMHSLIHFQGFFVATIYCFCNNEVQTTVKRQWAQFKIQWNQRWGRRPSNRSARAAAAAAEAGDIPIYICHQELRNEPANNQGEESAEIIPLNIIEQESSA
Assay: cell-based or functional assay
Starred links: 1 amine or outer side, 2 acyl side, 3 side chain; linkers in the order of their positions; H or OH if unused. Positions of bridges follow the written chain, without caps; N, C: chain ends. Groups on a side chain read outwards from the residue. No end group written: not given here. *: point of attachment. C20 diacid = O=C(O)CCCCCCCCCCCCCCCCCCC(=O)*; γGlu = O=C(O)[C@H](CCC(=O)[*:2])N[*:1]; AEEA = NCCOCCOCC(=O)O
Below, each of the binders is paired with its reported CTa receptor human EC50 value.
Response body: numeric value in nM, unit text excluded.

[
  {
    "BINDER": "{C20 diacid-γGlu}-HCNTATCATQRLAEFLHHSSNNFGPILPPTNVGSHTY-NH2 (disulfide 2-7; not fully specified; printed as N-alpha-[(S)-4-Carboxy-4-(19-carboxynonadecanoylamino)butyryl]-[His1,Glu14,His17,His35]-pramlintide) [N-alpha-[(S)-4-Carboxy-4-(19-carboxynonadecanoylamino)butyryl]-[His1,Glu14,His17,His35]-pramlintide]",
    "READING": 0.0855
  }
]

Lab note: measured CTa receptor human EC50 of RCNTATCATQRLAEFLHRSSK([AEEA-AEEA-γGlu-19‑carboxyheptadecanoyl])NFGPILPPTNVGSNTY-NH2 (disulfide 2-7) was 0.469

Lab note: measured CTa receptor human EC50 of KCNTATCATQRLAEFLVHSSK([AEEA-AEEA-γGlu-19‑carboxyheptadecanoyl])NFGPILPSTNVGSHTY-NH2 (disulfide 2-7) was 0.48

Lab note: measured CTa receptor human EC50 of KCNTATCATQRLANFLHHSSK([AEEA-AEEA-γGlu-19‑carboxyheptadecanoyl])NFGPILSPTNVGSHTY-NH2 (disulfide 2-7) was 0.889
